# assay-info: yeast display, Sf9 membrane polyspecificity reagent, FACS + sequencing; frameworks hold sequencing errors
property-name: polyreactivity (PSR sort gate)

Examples from the recorded data:
sequence-entry: QVQLVESGGGLVQAGGSLRLSCAASGSTFVPNTMGWYRQAPGKDRELVAGITSGGSTYYADSVKGRFTISRDNAKNTVYLQMNSLKPEDTAVYYCAAGKHVTFSYEYRMDYWGQGSQVTVSS
property-name: polyreactivity (PSR sort gate)
observed: low polyreactivity

sequence-entry: QVQLVESCGGLVPAGGSLRLSCAASGSTFRYAMGWYRQTPGKERELVDAITRSGGSTYYAYSVKVRFTISRDKAKNTVYLQMNSLKPEDTAVYYCNARRGKGKSYGDYGYGYWGQGTQVTVSS
property-name: polyreactivity (PSR sort gate)
observed: high polyreactivity

sequence-entry: QVHLVESGGGLVQAGGSLRLSCAASGGTINRYAMGWSRQAPGKERELVAAITYSGGRTYYADSVKGRFTISRDNAKNTVYLQMNSLKPEDTAVYYCAARVGKIISDSWGQGTQVTVSS
property-name: polyreactivity (PSR sort gate)
observed: high polyreactivity

sequence-entry: QVQLVESGGGLVQAGGSLRLSCAASGLIFGWYAMGWYRQAPGKERELVAGISGSGGITYYADSVKGRFTISRDNAKNTVYLQMNSLKPEDTAVYYCNARYPRYYRGVIQYDFWGQGTQVTVSS
property-name: polyreactivity (PSR sort gate)
observed: low polyreactivity

sequence-entry: QVQLVESGGGLVQAGGSLRLSCAASGSILSGYAMGWYRQAPGTERELVAAINDGGGTNYADSVKGRFTISRDNAKNTVYLQMKSLKPEDTAVYYCAAEQSVSFLVFTGVKFDYWGQGTQVTVSS
property-name: polyreactivity (PSR sort gate)
observed: low polyreactivity

Go through the list and state polyreactivity (PSR sort gate) for each entry.
1. QVQLVESGGGLVQAGGSLRLSCAASGSTFGVYAMGWYRQAPGKERELVAAISYTGGSTYYADSVKGRFTISRDNAKNTVYLQMNSLKPEDTAVYYCATRSRDQYSVSYRLDYWGQGTQVTVSS
2. QVQLVESGGGLVQAGGSLRLSCAASGRIFYRYAMGWDSQAPGKERELVAAISCGGSTYYADSVKGRFTISRDNAKNTVYLQMNSLKPEDSAVYYCAATWGRGTYYLYYYWGQGTQVTVSS
3. QVQLVESGGGLVQAGGSLRLSCAASGFTFDYYAMGWYRQAPGKERELVAAITSGSITYYADSVKGRFTISRDNAKNTVYLQMNSLKPEDTAVYYCARYGYRRVGSRWAEFDYWGQGTQVTVSS
4. QVQLVESGGGVVQAGASLRLSCAASGNIFYGYAMGWYRQAPGKERELVARINWSGSRTYYADSVKGRFTISRDNAKNTVYLQMNSLKPEDTAVYYCNTSTSRVPGNGDYWGQGSQVTVSS
5. QVQLVESGGGLVQARGSLRLSCAASGSTFPYYAMGWYRQAPGKARELVAAITSSTGRTYYADSVKGRFTISRDNAKNTVYLQMNSLKPEDTAVYYSNAEVYSDPYNDHDYWGQGTQVTVSS
6. QVQLVESGGGLVQAGGRLRLSCAASGRTFTYNAMGWYRQAPGKERELFAAISNTGSTYYADSLKGRFTISRDNAKNTVYLQMNSLKPEDTAVYYCAADRAEFRQDDDPGESNYWGQGTQVTVSS
7. QVQLGESGGGLVQAGGSLRLSCAASGGILYWYAMGWYRQAPGKERELVAAIDGTGGSTYYADSVKGRFTISRDNAKNTVYFQMYSLRPEDTEVYYCDATRPSIVTGNVKNGYWGHGTQVTVSS
8. QVQLVESGGGLVQAGGSLRLSCAASGSTFVGNAMGWYRQEPGKERELVATISNSGGRTYYADSVKGRLTISRDNAKYTVYLQMNSLKPEDTAVYYCAADHPDFGPGYSFDYWGQGTQVTVSS

*A*
low polyreactivity
high polyreactivity
high polyreactivity
high polyreactivity
low polyreactivity
low polyreactivity
low polyreactivity
low polyreactivity
